system: P. falciparum stage V gametocytes; experiment: microbe, parasite or virus in culture; set-up: BacTiter-Glo ATP luminescence viability of purified stage V gametocytes in 384-well plates, per cent inhibition versus DMSO; settings: Plasmodium falciparum, 48 h, read-out: % Inhibition
ENDPOINT: inhibition at 5 µM (%)
Value expressed in %; do not type the unit.

Quote inhibition at 5 µM with test system P. falciparum stage V gametocytes for Cc1cc(Br)cnc1CCCCNc1cc(=O)c2ccccc2[nH]1 [TCMDC-142316] -5.57

Would you please give the reported inhibition at 5 µM of COc1ccc2nccc(NN=Cc3cccc([N+](=O)[O-])c3)c2c1 [TCMDC-142137] with P. falciparum stage V gametocytes? 53.9

Give inhibition at 5 µM for Cc1cc2nc(-c3cc(Br)ccc3O)c(-c3cc(Br)ccc3O)nc2cc1C [TCMDC-142220] tested on P. falciparum stage V gametocytes. 24.2

// fetch inhibition at 5 µM; item: COc1ccc2nccc(NN=Cc3ccc(N(C)C)cc3)c2c1 [TCMDC-142145] ; system: P. falciparum stage V gametocytes -119

Name the value of inhibition at 5 µM reported for Fc1ccccc1C=NNc1ccnc2ccccc12 [TCMDC-142101] when tested on P. falciparum stage V gametocytes. -64.6

Give inhibition at 5 µM for this entry on P. falciparum stage V gametocytes: CCCCN(CCCC)Cc1cc(Nc2ccnc3cc(Cl)ccc23)ccc1O [TCMDC-142279] -8.89

Fill: inhibition at 5 µM (P. falciparum stage V gametocytes) for this compound COc1ccc(C=NNc2cc(C)nc3c(C)cccc23)c2ccccc12 [TCMDC-142216] -26.1

For P. falciparum stage V gametocytes, give inhibition at 5 µM of the listed compound: COc1ccc2nccc(NN=Cc3ccccc3Cl)c2c1 [TCMDC-142126] 20.5

Check P. falciparum stage V gametocytes data and give inhibition at 5 µM for CN=C(NO)NCCN(C)C [TCMDC-142305] . -1.82

Report inhibition at 5 µM from P. falciparum stage V gametocytes testing of COc1ccc(CSC2CCCCC23NC(=S)NC3=S)cc1 (stereo not drawn) [TCMDC-142273] 5.66

Check P. falciparum stage V gametocytes data and give inhibition at 5 µM for O=C(NC1c2ccccc2Oc2ccccc21)c1ccccc1O [TCMDC-142251] . 3.63

Provide inhibition at 5 µM, tested on P. falciparum stage V gametocytes, for Nc1c2c(nc3ccc(Oc4ccc(Br)cc4Br)cc13)CCCC2 [TCMDC-142286] . 91.6

GET inhibition at 5 µM | system: P. falciparum stage V gametocytes | item: COc1cccc2c(NN=Cc3ccc(Cl)cc3)ccnc12 [TCMDC-142106] -26.4

Quote P. falciparum stage V gametocytes inhibition at 5 µM for entry CCCC(=O)c1cnc2c(OCCCc3c[nH]cn3)cccc2c1Nc1c(C)cccc1C [TCMDC-142338] . 28.2

Report inhibition at 5 µM from P. falciparum stage V gametocytes testing of Cc1cc(NN=Cc2ccc(Cl)cc2)c2cc(C(F)(F)F)ccc2n1 [TCMDC-142155] -3.11

Please report inhibition at 5 µM with P. falciparum stage V gametocytes for item N=C(N)c1ccc(/C=C/c2ccc(C(=N)N)cc2O)cc1 [TCMDC-142178] . 1.54

State recorded inhibition at 5 µM with P. falciparum stage V gametocytes, entry COc1cccc2c(NN=Cc3cccc(Cl)c3)ccnc12 [TCMDC-142129] , no comment. 91.8

# assay system P. falciparum stage V gametocytes: give inhibition at 5 µM of COc1ccc2c(NN=Cc3ccccc3F)cc(C)nc2c1 [TCMDC-142118] -19.6

Tell me inhibition at 5 µM of Cc1cc(N/N=C/c2ccccc2[N+](=O)[O-])c2cc(F)ccc2n1 [TCMDC-142167] when tested on P. falciparum stage V gametocytes. -36.5

Under P. falciparum stage V gametocytes: report inhibition at 5 µM of CCOc1ccc2c(NN=Cc3ccccc3OC)cc(C)nc2c1 [TCMDC-142203] . 87.4

Under P. falciparum stage V gametocytes, report inhibition at 5 µM for COc1ccc(C=NNc2ccnc3ccccc23)c2ccccc12 [TCMDC-142215] -96.9

State recorded inhibition at 5 µM with P. falciparum stage V gametocytes, entry Cc1cc(NN=Cc2ccc(Cl)cc2)c2ccc(F)cc2n1 [TCMDC-142160] , no comment. -41.4

Give the observed inhibition at 5 µM of Nc1c2c(nc3ccc(Oc4ccc(Cl)cc4)cc13)CCCC2 [TCMDC-142282] for P. falciparum stage V gametocytes. 92

Enter inhibition at 5 µM (test system P. falciparum stage V gametocytes) for CCN(CC)CC(O)c1cc(-c2ccc(OC)cc2)nc2cc(Cl)ccc12 (stereo not drawn) [TCMDC-142222] -13

GET inhibition at 5 µM where system = P. falciparum stage V gametocytes and item = CCOc1ccc2c(NN=Cc3ccccn3)cc(C)nc2c1 [TCMDC-142187] 20.9

# return inhibition at 5 µM of c1ccc(COc2ccnc(NCCCOc3cccc(CN4CCCCC4)c3)c2)cc1 [TCMDC-142314] (system: P. falciparum stage V gametocytes) 40

Under P. falciparum stage V gametocytes, report inhibition at 5 µM for COc1ccc2nccc(NN=CC=Cc3ccccc3)c2c1 [TCMDC-142143] 39

Recall the reported inhibition at 5 µM of Cc1cc(NN=Cc2ccccc2Cl)c2cc(C(F)(F)F)ccc2n1 [TCMDC-142154] when tested on P. falciparum stage V gametocytes. -77.2

Using P. falciparum stage V gametocytes as the test system, report measured inhibition at 5 µM of Cc1cc(F)ccc1Nc1nc(N(C)c2ccccc2)c2cccc(OCCO)c2n1 [TCMDC-142334] . 32.7

Look up P. falciparum stage V gametocytes data: inhibition at 5 µM of CCOc1ccc2c(NN=Cc3cccc(Cl)c3)cc(C)nc2c1 [TCMDC-142192] , then report it. -2.16

Give measured inhibition at 5 µM for COc1ccc2c(NN=Cc3ccc(N(C)C)cc3)ccnc2c1 [TCMDC-142146] (P. falciparum stage V gametocytes). 97.5

Fill in inhibition at 5 µM for Fc1ccc2c(NN=CC=Cc3ccccc3)ccnc2c1 [TCMDC-142112] tested with P. falciparum stage V gametocytes. 93.5

Identify measured inhibition at 5 µM obtained with P. falciparum stage V gametocytes for CCOc1ccc2c(NN=Cc3cc(OC)c(OC)c(OC)c3)cc(C)nc2c1 [TCMDC-142208] . 101

Consider the compound CCCCCCCCNc1c2ccc(Cl)cc2nc2ccc(OC)cc12 [TCMDC-142191] tested on P. falciparum stage V gametocytes; state its inhibition at 5 µM. 0.773

Consider the compound Cc1ccc(C2(O)CC3CCC(C2)N3C)cc1 (stereo not drawn) [TCMDC-142260] tested on P. falciparum stage V gametocytes; state its inhibition at 5 µM. 10.6

Provide inhibition at 5 µM, recorded with P. falciparum stage V gametocytes, of FC(F)(F)c1ccc2nccc(NN=Cc3cccc(Cl)c3)c2c1 [TCMDC-142148] 56

Give reported inhibition at 5 µM for COc1ccc2c(NN=Cc3ccccc3Cl)ccnc2c1 [TCMDC-142127] (P. falciparum stage V gametocytes) -22.2

Give reported inhibition at 5 µM for CCN(Cc1ccccc1)CC(O)c1ccc(Cl)c(Cl)c1 (stereo not drawn) [TCMDC-142226] (P. falciparum stage V gametocytes) 14.8

Fill in inhibition at 5 µM for CCOc1ccc2c(NN=Cc3cccc(OC)c3)cc(C)nc2c1 [TCMDC-142204] tested with P. falciparum stage V gametocytes. 80.8

Recorded values, source paper PMC4552634.
